All figures here come from a collection of fitness landscapes (doi:10.1016/j.celrep.2020.107928).

B1: Caulobacter ParB omega fusion; a variant is named by its letters at X, in order, B8GW30 (parent)
chain: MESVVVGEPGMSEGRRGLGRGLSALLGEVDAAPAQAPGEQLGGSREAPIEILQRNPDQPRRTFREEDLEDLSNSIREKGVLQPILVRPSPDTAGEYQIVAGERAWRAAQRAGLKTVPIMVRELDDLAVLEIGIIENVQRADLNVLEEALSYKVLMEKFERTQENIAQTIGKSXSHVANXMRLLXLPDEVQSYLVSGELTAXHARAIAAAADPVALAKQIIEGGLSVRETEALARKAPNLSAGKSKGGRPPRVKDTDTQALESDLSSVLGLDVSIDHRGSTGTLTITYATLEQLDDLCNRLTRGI

variants of: B1; assay: one-hybrid fitness for binding NBS DNA (the Noc-binding site; scaled: cognate 1, non-cognate 0); higher = stronger binding; settings: with NBS DNA site
Over roughly 81,000 sequences, “one-hybrid fitness for binding NBS DNA” has its median near -0.1; the highest 2% begin near 0.36. This excerpt belongs to a sample that is enriched for the highest values.
Exercise: for every item that follows, state its recorded one-hybrid fitness for binding NBS DNA.

Sample `NYVI` ; one-hybrid fitness for binding NBS DNA observed: ≤ 0.2

Sample `MSHC` ; one-hybrid fitness for binding NBS DNA observed: 0.26

Sample `NEKR` ; one-hybrid fitness for binding NBS DNA observed: ≤ 0.2

Sample `QYLD` ; one-hybrid fitness for binding NBS DNA observed: ≤ 0.2

Sample `VIGG` ; one-hybrid fitness for binding NBS DNA observed: ≤ 0.2

Sample `QVAP` ; one-hybrid fitness for binding NBS DNA observed: ≤ 0.2
